Some compounds, each annotated with its measured growth.
# System: ACHN renal
# Procedure Summary: NCI-60 one-dose screen, 48 h (100 = growth as untreated, 0 = no growth, -100 = all killed)
# Conditions Used: 10 µM unless noted
About 83,000 compounds went through this panel and 20% of them were active in at least one assay; those are over-represented in the sample as a whole.
The response must be a number in % with no trailing unit.

Here's what some known entries look like.
O=C(N/N=C/c1ccc(N(CCCl)CCCl)cc1)c1cccc2ccccc12 : 80.7
Cc1cc(NC(=O)NCc2ccc(N3C(N)=NC(N)=NC3(C)C)cc2)ccc1S(=O)(=O)F : 89.2
Fc1ccc2c(c1)c(-c1nc(-c3c[nH]c4ncccc34)cs1)cn2CCN1CCOCC1 : 48.3
CN1CCCCC1C(C)(O)c1ccccc1 (configuration not stated) : 108
c1ccc(CSC(c2ccccc2)c2ccccc2)cc1 : 103

IN: growth lookup needed for C[CH2][Sn]([Cl])([Cl])[CH2]C.Oc1ccccc1C=NCCN=Cc1ccccc1O , thanks.
OUT: 97.5

IN: Quick one: growth of CC(=O)[O][Hg][O]C(C)=O ?
OUT: 108

----------
The entries below are paired with their reported growth.
# Tested on: SR leukemia
# Procedure Summary: NCI-60 one-dose screen, 48 h (100 = growth as untreated, 0 = no growth, -100 = all killed)
# Conditions Used: 10 µM unless noted
The panel holds about 83,000 compounds, 20% with a hit somewhere; the sample as a whole holds those more often.
Number in %, nothing else.

CCC1(C)CC(CCNCc2ccccc2O)(c2ccc(C)cc2)CCO1 (centres undefined) : 96
O=C(Nc1ccc([As]=[As]c2ccc(NC(=O)c3ccccc3)cc2)cc1)c1ccccc1 (centres undefined) : 0.482
O=C(Nc1ccncc1F)c1cn(CC2CC2)c2ccccc12 : 116

IN: Endpoint output: growth of Clc1cc(N2CC2)nc(N2CC2)n1 . Value?
OUT: 34.7

IN: Recorded growth of CCC(CC)CC1(C)CC2(C)CCOC2OO1 (centres undefined) , please.
OUT: 113

IN: Using the record for COc1ccc2c(c1)c(-c1nc(-c3cn(C)c4ncccc34)cs1)cn2CCCCN1CCCCC1 , report its growth.
OUT: -54.3

----------
Below, each of the molecules is paired with its reported growth value.
# System: SNB-75 CNS
# Procedure Summary: NCI-60 one-dose screen, 48 h (100 = growth as untreated, 0 = no growth, -100 = all killed)
# Conditions Used: 10 µM unless noted
Compounds without any hit were thinned out: in the full panel of roughly 83,000, 20% have a hit.
A number alone suffices; assume %.

Worked examples, 8 molecules total:
COc1ccc(C(=O)c2cc(OC)c(OC)c(OC)c2)cc1OC(C)=O : 40.4
O=C(O)c1c(Cl)n(Cc2ccc(O)cc2)c2ccc(O)cc12 : 80.6
COc1cc2c(cc1OCCCn1c(-c3ccccn3)nc3ccccc31)N=C[C@@H]1CCCN1C2=O : 23.3
O=C(Nc1ccc(O)cc1)C(Cl)(Cl)Cl : 98.5
CC(=O)OC1CCC2(C)C(CCC3C2CC(=O)C2(C)C3CC(Sc3ccc(N(CCCl)CCCl)cc3)C2C(C)=O)C1 (configuration not stated) : 111
CC(C)(N)Cc1ccccc1 : 103
O=C(N/N=C\c1ccc(N(CCCl)CCCl)cc1Cl)c1cccnc1 : 86.6
C[S+]1C=Cc2ccccc2C1c1ccc(Cl)cc1 (configuration not stated) : -70.7

IN: # growth lookup, item Nc1cc2nc3ccccc3nc2cc1N
OUT: 85.5

IN: I would be grateful if you could share the reported growth for ClCCN(CCCl)c1ccc(-n2cnc3c(Cl)ncnc32)cc1 .
OUT: 26.1

IN: Form field: reported growth of COc1cccc2c1c(C(=O)c1ccco1)cn2Cc1ccc(F)cc1
OUT: 121

IN: Item under review: CC[C@H](NC(=O)[C@H]1CCCCN1C)C(=O)N(C)[C@H](C[C@@H](OC(C)=O)c1nc(C(=O)N[C@@H](Cc2ccccc2)C[C@H](C)C(=O)O)cs1)C(C)C . Reported growth?
OUT: 24.9

IN: What does the record list as growth for Clc1cc(N2CC2)nc(N2CC2)n1 ?
OUT: 70.6

IN: Dear colleague, I am looking for the recorded growth of the following molecule: C/C(=C\c1ccn(-c2ccccc2N)n1)[C@@H]1C[C@@H]2O[C@]2(C)CCC[C@H](C)[C@H](O)[C@@H](C)C(=O)C(C)(C)[C@@H](O)CC(=O)O1
OUT: -4.54

IN: If you can, please state the reported growth value of COc1cccc(/C=C/[N+](=O)[O-])c1 .
OUT: 68.1

IN: Which growth value belongs to C[C@]12CC[C@H]3[C@@H](CC[C@]4(O)C[C@@H](O[C@@H]5O[C@H](CO)[C@@H](O[C@@H]6OC[C@@H](O)[C@H](O)[C@H]6O)[C@H](O)[C@H]5O)CC[C@]34C=O)[C@@]1(O)CC[C@@H]2C1=CC(=O)OC1 ?
OUT: 28

IN: Using the record for O=[N+]([O-])c1ccc([Se]C2CCCCC2Cl)c([N+](=O)[O-])c1 (configuration not stated) , report its growth.
OUT: -39.9

----------
growth for assorted molecules
# Test system: HCC-2998 colon
# Procedure Summary: NCI-60 one-dose screen, 48 h (100 = growth as untreated, 0 = no growth, -100 = all killed)
# Conditions Used: 10 µM unless noted
The panel holds about 83,000 compounds, 20% with a hit somewhere; the sample as a whole holds those more often.
Output spec: scalar in %, unitless text.

Cc1cc(N(CCCl)CCCl)ccc1/C=N\NC(=O)c1ccncc1 : 107
CN1CCC(O)(c2ccc(F)cc2)C(C(=O)c2ccc(F)cc2)C1 (stereo not drawn) : 101
CCOC(=O)N1CC1 : 150

IN: May I ask what growth has been recorded for C[C@]12CC[C@H]3[C@@H](CC4SC(N)=NC45C/C(=N/NC(N)=O)CC[C@]35C)[C@@H]1CCC2=O (stereo partly drawn) ?
OUT: 63.9

IN: # lookup: growth of CCOC(=O)CCN(C)C1=Nc2ccc(Cl)cc2C(c2ccccc2)=[N+]([O-])C1
OUT: 102

IN: What does the data say about its growth? Entry: COC(=O)[C@@]1(O)C[C@H]2O[C@]1(C)n1c3ccccc3c3c4c(c5c6ccccc6n2c5c31)C(=O)NC4
OUT: -53.4

----------
# reported growth; entries follow
# Tested on: OVCAR-8 ovarian
# Procedure Summary: NCI-60 one-dose screen, 48 h (100 = growth as untreated, 0 = no growth, -100 = all killed)
# Conditions Used: 10 µM unless noted
# Description: Growth inhibition of the OVCAR-8 human tumor cell line is measured as a screen for anti-cancer activity. Cells are grown in 96 well plates and exposed to the test compound for 48 hours. Compounds are tested at a single concentration, which is 10^-5 M for most compounds. The reported endpoint is percent growth (GI% or GIPRCNT), where numbers from 0 - 100% represent growth inhibition, and numbers from -100% - 0 represent cell death. For example, a value of 40 represents 60% growth inhibition. […]
This is part of a sample that, as a whole, favours compounds with a hit. Of some 83,000 tested, about 20% had one in any assay.
Unit % implied. Number only.

COc1cc(NCCCN=C(N)N)c2ncccc2c1 : 81.2

Now examine the next entry.
IN: Quick one: growth for COc1cc2ncnc(Nc3ccc(F)c(Cl)c3)c2cc1OCC(=O)N1CCN(C)CC1 ?
OUT: 90

----------
# Test system: OVCAR-8 ovarian
# Procedure Summary: NCI-60 one-dose screen, 48 h (100 = growth as untreated, 0 = no growth, -100 = all killed)
# Conditions Used: 10 µM unless noted
The panel holds about 83,000 compounds, 20% with a hit somewhere; the sample as a whole holds those more often.
Items are presented alongside their recorded growth.
Answer with a number only, understood to be in %.

CC(=O)C(c1c(O)c2ccccc2oc1=O)c1cc(=O)oc2c1ccc1ccccc12 (stereo not given) : 99.4
Nc1cc2nc3ccccc3nc2cc1N : 83
COC(=O)[C@@H](C)C[C@H](Cc1ccccc1)NC(=O)c1csc([C@@H](C[C@H](C(C)C)N(C)C(=O)[C@@H](NC(=O)[C@H]2CCCCN2C)C(C)C)OC(C)=O)n1 : 22.7
COC(C(=O)[C@@H](O)[C@@H](C)O)[C@@H]1Cc2cc3cc(O[C@H]4C[C@@H](O[C@H]5C[C@@H](O)[C@H](O)C(C)O5)[C@H](O)C(C)O4)c(C)c(O)c3c(O)c2C(=O)[C@H]1O[C@H]1C[C@@H](O[C@H]2C[C@@H](O[C@H]3C[C@@H](O)[C@@H](O)C(C)O3)[C@@H](O)C(C)O2)[C@H](O)C(C)O1 (stereo not given in full) : 2.92
C=CC1=C[C@@H]2[C@@H]3O[C@]4(CC[C@H](O4)[C@@H](C)C[C@@H](O)C3=O)C[C@H](O)C3=NCC[C@@]32CC1 : -12.3

IN: Need growth, item CC[C@H](C)[C@H](NC(=O)[C@H]1CCCCN1C)C(=O)N(C)[C@H](CC(=O)c1nc(C(=O)N[C@@H](Cc2ccccc2)C[C@H](C)C(=O)O)cs1)C(C)C
OUT: 96.9

IN: Requested read-out: growth. Entry: Cn1cc(-c2csc(-c3cn(CCN4CCOCC4)c4ccc(F)cc34)n2)c2cccnc21
OUT: 4.93

IN: Which value of growth has been reported for O=C1C2CCC1C(N1CCCC1)CC2 (stereo not given) in the records?
OUT: 96.3

IN: Report growth for CCC[CH2][Sn]([CH2]CCC)([CH2]CCC)[O]c1ccc(Cl)cc1Cl please.
OUT: -48.1

IN: Value lookup for growth; key = O=C1C(=Cc2cn(Cc3ccccc3)c3ccccc23)C(=O)N(Cc2ccccc2)C(=O)N1Cc1ccccc1
OUT: 83.5

IN: Entry COc1cc(/C=C\c2cc(OC)c(OC)c(OC)c2)cc(NS(=O)(=O)c2cccc(Cl)c2)c1OC has what growth?
OUT: 18.2

IN: What does the data say about its growth? Entry: COC(=O)[C@@]1(C)CC[C@]2(C)CC[C@]3(C)C4=CC=C5C(=CC(=O)C(O)=C5C)[C@]4(C)CC[C@@]3(C)[C@@H]2C1
OUT: -72.9

IN: Consider the compound CCCC(C)C1(CC)C(=O)NC(=O)N(C)C1=O (stereo not given) and give its measured growth.
OUT: 98.8

IN: Consider the compound shown here: CC1CCCC(C[N+](C)(C)C)C1=O (stereo not given) What is its recorded growth?
OUT: 108

IN: I have this compound here, [Cl][Hg][c]1cc[c]([Hg][Cl])o1 , and I need its recorded growth.
OUT: 65.1
